meta.source: ChEMBL document CHEMBL1158122

system: MCF7; assay: Cytotoxicity against human MCF7 cells after 48 hrs by SRB assay; format: functional; settings: MCF7, 48 h
For each record, write down the corresponding GI50.

Record excerpt, results attached:
# compound, system tested, GI50
measured = [
    ("CCCCOC(=O)[C@H]1O[C@@H](O[C@H]2CC[C@]3(C)[C@H]4CC=C5[C@@H]6CC(C)(C)CC[C@]6(C(=O)O[C@@H]6O[C@H](CO)[C@@H](O)[C@H](O)[C@H]6O)CC[C@@]5(C)[C@]4(C)CC[C@H]3C2(C)C)[C@H](O)[C@@H](O)[C@@H]1O", "MCF7", "1.6 µM"),
    ("COC(=O)[C@H]1O[C@@H](O[C@H]2CC[C@]3(C)[C@H]4CC=C5[C@@H]6CC(C)(C)CC[C@]6(C(=O)O)CC[C@@]5(C)[C@]4(C)CC[C@H]3C2(C)C)[C@H](O)[C@@H](O[C@@H]2O[C@H](CO)[C@H](O)[C@H](O)[C@H]2O)[C@@H]1O", "MCF7", "9.93 µM"),
    ("CC1(C)CC[C@]2(C(=O)O)CC[C@]3(C)C(=CC[C@@H]4[C@@]5(C)CC[C@H](O[C@@H]6O[C@H](C(=O)O)[C@@H](O)[C@H](O[C@@H]7O[C@H](CO)[C@H](O)[C@H](O)[C@H]7O)[C@H]6O[C@@H]6O[C@H](CO)[C@@H](O)[C@H](O)[C@H]6O)C(C)(C)[C@@H]5CC[C@]43C)[C@@H]2C1 [CALENDULAGYCOSIDE B]", "MCF7", "53.5 µM"),
]

Now let's try a different one.
**Query** Request the reported GI50 associated with "CCCCOC(=O)[C@H]1O[C@@H](O[C@H]2CC[C@]3(C)[C@H]4CC=C5[C@@H]6CC(C)(C)CC[C@]6(C(=O)O)CC[C@@]5(C)[C@]4(C)CC[C@H]3C2(C)C)[C@H](O[C@@H]2O[C@H](CO)[C@@H](O)[C@H](O)[C@H]2O)[C@@H](O[C@@H]2O[C@H](CO)[C@H](O)[C@H](O)[C@H]2O)[C@@H]1O"
**Result** 38.4 µM

###

test system: TK-10; test: Cytotoxicity against human TK-10 cells after 48 hrs by SRB assay; format: functional; settings: TK-10, 48 h
measurement type: GI50 (µM)
Answers are plain numbers, in µM.

# structure, GI50 [µM]
measured = [
    ("COC(=O)[C@H]1O[C@@H](O[C@H]2CC[C@]3(C)[C@H]4CC=C5[C@@H]6CC(C)(C)CC[C@]6(C(=O)O)CC[C@@]5(C)[C@]4(C)CC[C@H]3C2(C)C)[C@H](O)[C@@H](O[C@@H]2O[C@H](CO)[C@H](O)[C@H](O)[C@H]2O)[C@@H]1O", 7.22),
]

For every item in the list below, what is its measured GI50?
1. CCCCOC(=O)[C@H]1O[C@@H](O[C@H]2CC[C@]3(C)[C@H]4CC=C5[C@@H]6CC(C)(C)CC[C@]6(C(=O)O[C@@H]6O[C@H](CO)[C@@H](O)[C@H](O)[C@H]6O)CC[C@@]5(C)[C@]4(C)CC[C@H]3C2(C)C)[C@H](O)[C@@H](O)[C@@H]1O
2. CCCCOC(=O)[C@H]1O[C@@H](O[C@H]2CC[C@]3(C)[C@H]4CC=C5[C@@H]6CC(C)(C)CC[C@]6(C(=O)O)CC[C@@]5(C)[C@]4(C)CC[C@H]3C2(C)C)[C@H](O[C@@H]2O[C@H](CO)[C@@H](O)[C@H](O)[C@H]2O)[C@@H](O[C@@H]2O[C@H](CO)[C@H](O)[C@H](O)[C@H]2O)[C@@H]1O

**Result**
1: 1.85; 2: 33.3

###

test system: Malme-3M; experiment: Cytotoxicity against human MALME-3M cells after 48 hrs by SRB assay; assay type: functional
measurement type: GI50
In your response, put the unit directly after the numeric value.

**Query** Request the reported GI50 associated with "CCCCOC(=O)[C@H]1O[C@@H](O[C@H]2CC[C@]3(C)[C@H]4CC=C5[C@@H]6CC(C)(C)CC[C@]6(C(=O)O[C@@H]6O[C@H](CO)[C@@H](O)[C@H](O)[C@H]6O)CC[C@@]5(C)[C@]4(C)CC[C@H]3C2(C)C)[C@H](O)[C@@H](O)[C@@H]1O"
**Result** 1470 nM

###

test system: NCI-H322M; assay: Cytotoxicity against human NCI-H322M cells after 48 hrs by SRB assay; assay type: functional
measurement type: GI50 (µM)
One number for each entry, in µM.

# compound, GI50 / µM
records = [
    ("COC(=O)[C@H]1O[C@@H](O[C@H]2CC[C@]3(C)[C@H]4CC=C5[C@@H]6CC(C)(C)CC[C@]6(C(=O)O)CC[C@@]5(C)[C@]4(C)CC[C@H]3C2(C)C)[C@H](O)[C@@H](O[C@@H]2O[C@H](CO)[C@H](O)[C@H](O)[C@H]2O)[C@@H]1O", 7.59),
    ("CCCCOC(=O)[C@H]1O[C@@H](O[C@H]2CC[C@]3(C)[C@H]4CC=C5[C@@H]6CC(C)(C)CC[C@]6(C(=O)O[C@@H]6O[C@H](CO)[C@@H](O)[C@H](O)[C@H]6O)CC[C@@]5(C)[C@]4(C)CC[C@H]3C2(C)C)[C@H](O)[C@@H](O)[C@@H]1O", 4.08),
    ("CCCCOC(=O)[C@H]1O[C@@H](O[C@H]2CC[C@]3(C)[C@H]4CC=C5[C@@H]6CC(C)(C)CC[C@]6(C(=O)O)CC[C@@]5(C)[C@]4(C)CC[C@H]3C2(C)C)[C@H](O[C@@H]2O[C@H](CO)[C@@H](O)[C@H](O)[C@H]2O)[C@@H](O[C@@H]2O[C@H](CO)[C@H](O)[C@H](O)[C@H]2O)[C@@H]1O", 19),
]

Now let's try a different one.
**Query** Request the reported GI50 associated with CC1(C)CC[C@]2(C(=O)O)CC[C@]3(C)C(=CC[C@@H]4[C@@]5(C)CC[C@H](O[C@@H]6O[C@H](C(=O)O)[C@@H](O)[C@H](O[C@@H]7O[C@H](CO)[C@H](O)[C@H](O)[C@H]7O)[C@H]6O[C@@H]6O[C@H](CO)[C@@H](O)[C@H](O)[C@H]6O)C(C)(C)[C@@H]5CC[C@]43C)[C@@H]2C1 [CALENDULAGYCOSIDE B]
**Result** 26

###

tested on: NCI-H23; assay: Cytotoxicity against human NCI-H23 cells after 48 hrs by SRB assay; format: functional; settings: NCI-H23, 48 h
measurement type: GI50 (µM)
Give bare numbers, in µM.

Record excerpt, results attached:
# compound, GI50, µM
records = [
    ("CC1(C)CC[C@]2(C(=O)O)CC[C@]3(C)C(=CC[C@@H]4[C@@]5(C)CC[C@H](O[C@@H]6O[C@H](C(=O)O)[C@@H](O)[C@H](O[C@@H]7O[C@H](CO)[C@H](O)[C@H](O)[C@H]7O)[C@H]6O[C@@H]6O[C@H](CO)[C@@H](O)[C@H](O)[C@H]6O)C(C)(C)[C@@H]5CC[C@]43C)[C@@H]2C1 [CALENDULAGYCOSIDE B]", 20.2),
    ("CCCCOC(=O)[C@H]1O[C@@H](O[C@H]2CC[C@]3(C)[C@H]4CC=C5[C@@H]6CC(C)(C)CC[C@]6(C(=O)O[C@@H]6O[C@H](CO)[C@@H](O)[C@H](O)[C@H]6O)CC[C@@]5(C)[C@]4(C)CC[C@H]3C2(C)C)[C@H](O)[C@@H](O)[C@@H]1O", 1.48),
]

For every item in the list below, what is its measured GI50?
1. CCCCOC(=O)[C@H]1O[C@@H](O[C@H]2CC[C@]3(C)[C@H]4CC=C5[C@@H]6CC(C)(C)CC[C@]6(C(=O)O)CC[C@@]5(C)[C@]4(C)CC[C@H]3C2(C)C)[C@H](O[C@@H]2O[C@H](CO)[C@@H](O)[C@H](O)[C@H]2O)[C@@H](O[C@@H]2O[C@H](CO)[C@H](O)[C@H](O)[C@H]2O)[C@@H]1O
2. COC(=O)[C@H]1O[C@@H](O[C@H]2CC[C@]3(C)[C@H]4CC=C5[C@@H]6CC(C)(C)CC[C@]6(C(=O)O)CC[C@@]5(C)[C@]4(C)CC[C@H]3C2(C)C)[C@H](O)[C@@H](O[C@@H]2O[C@H](CO)[C@H](O)[C@H](O)[C@H]2O)[C@@H]1O

**Result**
1. 22.8
2. 6.46

###

system: SK-MEL-5; assay: Cytotoxicity against human SK-MEL-5 cells after 48 hrs by SRB assay; format: functional; details: SK-MEL-5, 48 h
For each record, write down the corresponding GI50.
Answers are plain numbers, in µM.

Record excerpt, results attached:
# structure, unit annotation, GI50
records = [
    ("CCCCOC(=O)[C@H]1O[C@@H](O[C@H]2CC[C@]3(C)[C@H]4CC=C5[C@@H]6CC(C)(C)CC[C@]6(C(=O)O[C@@H]6O[C@H](CO)[C@@H](O)[C@H](O)[C@H]6O)CC[C@@]5(C)[C@]4(C)CC[C@H]3C2(C)C)[C@H](O)[C@@H](O)[C@@H]1O", "µM", 0.93),
    ("COC(=O)[C@H]1O[C@@H](O[C@H]2CC[C@]3(C)[C@H]4CC=C5[C@@H]6CC(C)(C)CC[C@]6(C(=O)O)CC[C@@]5(C)[C@]4(C)CC[C@H]3C2(C)C)[C@H](O)[C@@H](O[C@@H]2O[C@H](CO)[C@H](O)[C@H](O)[C@H]2O)[C@@H]1O", "µM", 6.14),
]

Now let's try a different one.
**Query** Request the reported GI50 associated with "CCCCOC(=O)[C@H]1O[C@@H](O[C@H]2CC[C@]3(C)[C@H]4CC=C5[C@@H]6CC(C)(C)CC[C@]6(C(=O)O)CC[C@@]5(C)[C@]4(C)CC[C@H]3C2(C)C)[C@H](O[C@@H]2O[C@H](CO)[C@@H](O)[C@H](O)[C@H]2O)[C@@H](O[C@@H]2O[C@H](CO)[C@H](O)[C@H](O)[C@H]2O)[C@@H]1O"
**Result** 33.1
